# System: EfPiwi piRISC loaded with piRNA #1 (26 nt)
# protocol.description: pre-steady-state target cleavage rate (min^-1); auxiliary factor: 500 nM Ephydatia muelleri Gtsf1; guide: piRNA #1 5'p-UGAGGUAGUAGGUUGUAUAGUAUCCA; higher = faster piRNA-guided slicing of the target
endpoint: pre-steady-state target cleavage rate

GGAGACGAUACUAUACAACCAACUAGCUCA :: 0.00457
GGAGACGAUACUAUUCAACCUACUAGCUCA :: 0.0042
GGAGACCAUACUAUACAACCUACUAGCUCA :: 0.00491
GGAGAGGAUACUAUACAAGCUACUACCACA :: 0.00317
GGAGACCUUACUAUACAACCUACUACCUUCA :: 0.0532

**Q:** Given the entry GGAGACCUAUGAUAACAACCUACUACCUACA , report its measured pre-steady-state target cleavage rate.
**A:** < 0.0001

**Q:** Given the entry GGAGACCUAACUAUACAACCUACUACCUACA , report its measured pre-steady-state target cleavage rate.
**A:** 0.00795

###

# System: MILI (PIWIL2) piRISC loaded with L1MC piRNA (26 nt);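 also: 1 nM active piRISC with 0.1 nM target library at 33 °C single turnover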
# protocol.description: pre-steady-state target cleavage rate (min^-1); guide: L1MC piRNA 5'p-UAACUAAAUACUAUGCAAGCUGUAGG; higher = faster piRNA-guided slicing of the target
# setup.conditions: auxiliary factor: 500 nM mouse GTSF1
endpoint: pre-steady-state target cleavage rate
Give the value as a plain number.

UCCUGGAUGUGCUUGCACAGUAUUUAGUUA :: 0.13
UCCUCCUACAGCUUGCAUAGUUAAAUCAAA [g10:g26:cont:t1A] :: 0.0191
UCCUGGAUCAGCUUGCAUAGAAUUUAGAUA :: 0.0147
UCCUGGUACAGCUUGCAUAGUGUUUAGUUA :: 0.162
UCCUGGAUCAGCUUCGAUAGUAUUUACAAA :: 0.00974
UCCUGGAUCAGCUAGCAUAGUAAUUAGUUA :: 0.152
UCCUCCUACUAGCUUGCAUAGUAUUUAGUUA :: 0.13
UCCUGGUACAGCUUGCAUAGUAUUUAGUAA :: 0.283
UCCUGGAUGUCCUUGCAUAGUAUCUAGUUA :: 0.12
UCCUGCUACAGCUGGCAUAGUAUUUAGUUA :: 0.293

**Q:** Given the entry UCCUGGAUGUGCAUGCAUAGUAUAUAGUUA , report its measured pre-steady-state target cleavage rate.
**A:** 0.19

**Q:** Given the entry UCCUCCUACAGCUACGAUAGUAUUUAGUUA , report its measured pre-steady-state target cleavage rate.
**A:** 0.232

**Q:** Given the entry UCCUGGUACUGCAUGCAUAGUAUUUAGUUA , report its measured pre-steady-state target cleavage rate.
**A:** 0.222

###

# System: MILI (PIWIL2) piRISC loaded with L1MC piRNA (26 nt);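 also: 1 nM active piRISC with 0.1 nM target library at 33 °C single turnover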
# protocol.description: pre-steady-state target cleavage rate (min^-1); guide: L1MC piRNA 5'p-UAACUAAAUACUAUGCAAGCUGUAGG; higher = faster piRNA-guided slicing of the target
# setup.conditions: auxiliary factor: none (no GTSF1)
Definition: the class of an entry is the range in bin 1: < 0.004; bin 2: ≥ 0.004 and < 0.007; bin 3: ≥ 0.007 that contains its pre-steady-state target cleavage rate.

UCCUGGAUGUGCUUGGAUAGUAUUAAGUUA :: bin 2
UCCUGGAUGUCCUUGCAAAGUAUAUAGUUA :: bin 2
UCCUGGUCCAGCUUGCAUAGUAUUUAGUUA :: bin 3
UCCUGGUACAGCUUGCAUAGUAGUUUAGUUA :: bin 3
UCCUGGAUGUCGAAGCAUAGUAUUUAGUUUA :: bin 2

**Q:** // bin(item) where item = UCCUGCUACAGCUUCAUAGUAUUUAGUUA
**A:** bin 2

**Q:** // bin(item) where item = UCCUGGAUGUCCUAGCAUAGUAUUAAGUUA
**A:** bin 1

###

# System: EfPiwi piRISC loaded with L1MC piRNA (26 nt)
# protocol.description: pre-steady-state target cleavage rate (min^-1); auxiliary factor: 500 nM Ephydatia muelleri Gtsf1; guide: L1MC piRNA 5'p-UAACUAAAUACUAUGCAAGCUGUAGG; higher = faster piRNA-guided slicing of the target
endpoint: pre-steady-state target cleavage rate
Give the value as a plain number.

**Q:** Given the entry UCCUGGAUGUGCUUGCAUCGUAUUUAGUUA , report its measured pre-steady-state target cleavage rate.
**A:** 0.00598

**Q:** Given the entry UCCUGCUACAGCUUGGAUAGUAAUUAGUUA , report its measured pre-steady-state target cleavage rate.
**A:** 0.00773

**Q:** Given the entry UCCUGCUACAGCUUGCAUAGUAUUUAGUUC [g2:g25:cont:t1C] , report its measured pre-steady-state target cleavage rate.
**A:** 0.0645

###

# Tested on: EfPiwi piRISC loaded with L1MC piRNA (26 nt)
# protocol.description: pre-steady-state target cleavage rate (min^-1); auxiliary factor: 500 nM Ephydatia muelleri Gtsf1; guide: L1MC piRNA 5'p-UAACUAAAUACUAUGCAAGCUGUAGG; higher = faster piRNA-guided slicing of the target
Lab note: anything with pre-steady-state target cleavage rate at or over 0.008 counts as Satisfied; the rest go in Not satisfied.

Field: example entries. Status: answers known.
UCCUCCUACAGCUUGCAUAGUAUAUAGUAA :: Not satisfied
UCCUGGAACAGCUUGCAUAUUAUUUAGUUA :: Satisfied
UCCUGGAUGAGCUUGCAUAGUUUUUAGAAA :: Not satisfied
UCCUGGAACAGCUUGCAUAGUAAUUUAGUUA :: Not satisfied
UCCUGGAUCAGCAUGCAUACUAUUUAGUUA :: Not satisfied

**Q:** Exam item: decide whether the reported pre-steady-state target cleavage rate for UCCUGCAACAGCUUGCAUACUAUUUAGUUA is at least 0.008.
**A:** Satisfied

**Q:** Exam item: decide whether the reported pre-steady-state target cleavage rate for UCCUGGAAGAGCUUGCAUAGUAUUUAGUAA is at least 0.008.
**A:** Not satisfied

###

# Tested on: EfPiwi piRISC loaded with piRNA #1 (26 nt)
# protocol.description: pre-steady-state target cleavage rate (min^-1); auxiliary factor: 500 nM Ephydatia muelleri Gtsf1; guide: piRNA #1 5'p-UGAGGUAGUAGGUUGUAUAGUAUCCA; higher = faster piRNA-guided slicing of the target
The sequences listed here are annotated with their pre-steady-state target cleavage rate.
Give the value as a plain number.

Examples from the recorded data:
GGAGACCUAACUAUACAACCUACUACCUCCA :: 0.015
GGAGACGAUACUAUACCAACCUACUACCUCA :: 0.0123
GGAGACGAUACUAUACAACCAACUACGUCA :: 0.00251
GGAGACCUAACUAUACAACCCACUACCUCA :: 0.00404
GGAGACCUAUGUAUACAACCUACUACCUCA [g2:g19:cont:t1A] :: 0.00649

**Q:** Given the entry GGAGAGGAUACUAUACAACCAACUUCCUCA , report its measured pre-steady-state target cleavage rate.
**A:** 0.00313

**Q:** Given the entry GGAGACGAUCCUAUACAACCUACUACCUCA , report its measured pre-steady-state target cleavage rate.
**A:** 0.0157

**Q:** Given the entry GGAGUGGAUACUAUACAAGCUACUUCCUCA , report its measured pre-steady-state target cleavage rate.
**A:** 0.00402

**Q:** Given the entry GGAGACGAUACUAUACAAGCUACUACGUCA , report its measured pre-steady-state target cleavage rate.
**A:** 0.00352

###

# Test system: MILI (PIWIL2) piRISC loaded with piRNA #1 (26 nt);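 also: 1 nM active piRISC with 0.1 nM target library at 33 °C single turnover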
# protocol.description: pre-steady-state target cleavage rate (min^-1); guide: piRNA #1 5'p-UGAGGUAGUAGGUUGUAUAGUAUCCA; higher = faster piRNA-guided slicing of the target
# setup.conditions: auxiliary factor: 500 nM mouse GTSF1
The sequences listed here are annotated with their pre-steady-state target cleavage rate.

**Q:** Given the entry GGAGACCUAUGAUUACAACCUACUACCUAA , report its measured pre-steady-state target cleavage rate.
**A:** 0.00444

###

# System: MILI (PIWIL2) piRISC loaded with L1MC piRNA (26 nt);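 also: 1 nM active piRISC with 0.1 nM target library at 33 °C single turnover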
# protocol.description: pre-steady-state target cleavage rate (min^-1); guide: L1MC piRNA 5'p-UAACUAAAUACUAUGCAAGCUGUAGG; MIWI and MILI are mouse PIWI proteins and EfPiwi is from a freshwater sponge; tags in brackets are library labels; higher = faster piRNA-guided slicing of the target
# setup.conditions: auxiliary factor: none (no GTSF1)
endpoint: pre-steady-state target cleavage rate
Give the value as a plain number.

Examples from the recorded data:
UCCUGGAUCAGCUAGCAUUGUAUUUAGUUA :: 0.00287
UCCUGGAUGUCCUUGCAUAGUAUUCUAGUUA :: 0.00384
UCCUCCUACAGCUUGCUUAGUAUUUUGUUA :: 0.0026
UCCUGGAUGUCGUUGCAUAGUAUUUCAGUUA :: 0.00397
UCCUGGAUCAGCUAGCAUAGUAAUUAGUUA :: 0.00502

**Q:** Given the entry UCCUGGAUCAGCUUGCUAAGUAUUUAGUUA , report its measured pre-steady-state target cleavage rate.
**A:** 0.0065

**Q:** Given the entry UCCUGGAUCACUUGCAUAGUAUUUAGUUA , report its measured pre-steady-state target cleavage rate.
**A:** 0.0066

**Q:** Given the entry UCCUCCAUCAGCUUGCAUAGUAUUUAGUUA , report its measured pre-steady-state target cleavage rate.
**A:** 0.00673

**Q:** Given the entry UCCUGGAUCUGCUUGCAUAGUAUUUAGUAA , report its measured pre-steady-state target cleavage rate.
**A:** 0.00457

**Q:** Given the entry UCCUCCAACUGCUUGCAUAGUAUUUAGUUA , report its measured pre-steady-state target cleavage rate.
**A:** 0.00659
